assay_system: soluble HLA-A*0201 (sHLA-A*0201) (human)
endpoint: IC50 (µM)
// note: answer is a bare numeric in µM

(Q) What measured IC50 goes with KLGEFYNQMM (modifications not checked) […] ?
(A) 10.5
